- assay.overview: AUC and Cmax target safe levels of CYP3A4 substrate drugs (Table 1)
- conditions: human
result.type: AUC target safe level, Fold change (fold)
Only the number, expressed in fold, is required.

{"columns": ["molecule", "AUC target safe level, Fold change [fold]"],
 "data": [
  ["N#Cc1ccnc(N2C(=O)CC[C@H]2C(=O)N(c2cncc(F)c2)[C@H](C(=O)NC2CC(F)(F)C2)c2ccccc2Cl)c1 [ivosidenib]", 1.73]
]}

Output AUC target safe level, Fold change of COc1c(OCCCN2CCOCC2)ccc2c1N=C(NC(=O)c1cnc(N)nc1)N1CCN=C21 [copanlisib]
1.53
